Ref: patent US9617258B2

Assay: Stability of JAK3 covalent inhibitors in human whole blood;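 further: parent compound remaining over incubation time quantified by LC-MS/MS as peak area ratio against an internal standard, using pooled K2-EDTA blood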
Format: in vitro ADME
Conditions: both sexes, whole blood, 37° C., read-out: Human blood stability t1/2
Kindly supply the reported half-life at 1 μM values for the records listed here.

Completed entries (count: 2):
So what's the measured half-life at 1 μM for this one? C=CC(=O)N1C[C@@H](C)C[C@@H](Nc2ncnc3[nH]ccc23)C1 (single isomer, unassigned) [Example 14]
> 4.18 h

Also need C=CC(=O)N1C[C@H](Nc2ncnc3[nH]ccc23)CC[C@@H]1CC (single isomer, unassigned) , thanks.
> 6 h

The following compounds each have a reported value; give each one's half-life at 1 μM.
1. C=CC(=O)N1CCC(Nc2cnc3[nH]cc(C(=O)NC4CCCCC4(F)F)c3n2)CC1 (centres unmarked)
2. C=CC(=O)N1CCC(Nc2cnc3[nH]cc(C(=O)NC4CCC(F)(F)C4)c3n2)CC1 (centres unmarked)
3. C=CC(=O)N1C[C@@H](O)C[C@@H](Nc2ncnc3[nH]ccc23)C1
4. C=CC(=O)N1CCC(Nc2cnc3[nH]cc(-c4ccc(F)nc4)c3n2)CC1
5. C=CC(=O)N1CCC[C@@H](Nc2ncnc3[nH]cc(CCOC)c23)C1
6. C=CC(=O)N1CCCC(C)(Nc2ncnc3[nH]ccc23)C1 (centres unmarked)

3.98 h
> 6 h
> 5.17 h
> 6 h
> 5.74 h
3.82 h
